Collected kcat/KM values appear next to each entry.
Biological target: Factor X, P00742
Sequence (P00742 whole entry, looked up): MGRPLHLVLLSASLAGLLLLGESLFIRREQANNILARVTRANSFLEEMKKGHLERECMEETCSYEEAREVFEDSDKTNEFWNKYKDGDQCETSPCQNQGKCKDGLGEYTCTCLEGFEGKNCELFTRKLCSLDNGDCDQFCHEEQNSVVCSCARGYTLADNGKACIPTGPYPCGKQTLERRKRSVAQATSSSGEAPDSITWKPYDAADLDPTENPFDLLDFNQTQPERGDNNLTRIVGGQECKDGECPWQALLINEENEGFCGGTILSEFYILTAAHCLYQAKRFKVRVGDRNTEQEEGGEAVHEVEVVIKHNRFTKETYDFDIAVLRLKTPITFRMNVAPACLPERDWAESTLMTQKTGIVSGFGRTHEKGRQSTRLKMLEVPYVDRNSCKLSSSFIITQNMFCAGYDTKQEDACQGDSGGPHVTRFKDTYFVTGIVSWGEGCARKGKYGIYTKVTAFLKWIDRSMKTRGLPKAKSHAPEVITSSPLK
Respond numerically; units are M⁻¹ s⁻¹ and should not be typed.

Protein	Number
FIXa D104N/K106S/K228N/K247N/N249S/R318Y/R338E/R403E/E410N (protein) chain 1: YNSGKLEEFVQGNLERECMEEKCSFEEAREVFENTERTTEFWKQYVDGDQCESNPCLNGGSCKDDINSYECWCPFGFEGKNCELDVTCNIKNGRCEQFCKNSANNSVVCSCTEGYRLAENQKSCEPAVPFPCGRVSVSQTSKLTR chain 2: VVGGEDAKPGQFPWQVVLNGKVDAFCGGSIVNEKWIVTAAHCVETGVNITVVAGEHNIEETEHTEQNRSVIRIIPHHNYNAAINKYNHDIALLELDEPLVLNSYVTPICIADKEYTNIFLKFGSGYVSGWGRVFHKGYSALVLQYLRVPLVDRATCLESTKFTIYNNMFCAGFHEGGRDSCQGDSGGPHVTEVEGTSFLTGIISWGEECAMKGKYGIYTKVSEYVNWIKNKTKLT	1.1e+08
FIXa-Y155F/K247N/N249S/R318Y/R338E/E410N (protein) chain 1: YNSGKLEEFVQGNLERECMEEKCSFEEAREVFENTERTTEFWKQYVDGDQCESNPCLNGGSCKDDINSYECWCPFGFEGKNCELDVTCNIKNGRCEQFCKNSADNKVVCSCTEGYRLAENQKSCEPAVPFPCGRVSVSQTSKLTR chain 2: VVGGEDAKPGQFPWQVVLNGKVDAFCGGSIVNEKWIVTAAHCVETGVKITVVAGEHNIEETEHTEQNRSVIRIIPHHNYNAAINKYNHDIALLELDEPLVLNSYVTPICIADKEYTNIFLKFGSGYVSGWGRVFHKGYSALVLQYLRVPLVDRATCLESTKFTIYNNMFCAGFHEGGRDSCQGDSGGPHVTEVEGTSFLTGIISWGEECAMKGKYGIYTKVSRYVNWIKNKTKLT	3e+08
FIXa-Y155F/R338E/T343R/R403E/E410S (protein) chain 1: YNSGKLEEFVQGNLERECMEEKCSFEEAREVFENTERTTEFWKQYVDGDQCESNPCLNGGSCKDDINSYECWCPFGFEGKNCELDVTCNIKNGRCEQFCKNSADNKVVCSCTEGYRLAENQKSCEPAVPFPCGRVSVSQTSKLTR chain 2: VVGGEDAKPGQFPWQVVLNGKVDAFCGGSIVNEKWIVTAAHCVETGVKITVVAGEHNIEETEHTEQKRNVIRIIPHHNYNAAINKYNHDIALLELDEPLVLNSYVTPICIADKEYTNIFLKFGSGYVSGWGRVFHKGRSALVLQYLRVPLVDRATCLESTKFRIYNNMFCAGFHEGGRDSCQGDSGGPHVTEVEGTSFLTGIISWGEECAMKGKYGIYTKVSEYVNWIKSKTKLT	2.9e+08

Now for a further protein.
Ask | Could you tell me which kcat/KM is on file for FIXa-D104N/K106S/K247N/N249S/R318Y/R338E/R403E/E410N (protein) chain 1: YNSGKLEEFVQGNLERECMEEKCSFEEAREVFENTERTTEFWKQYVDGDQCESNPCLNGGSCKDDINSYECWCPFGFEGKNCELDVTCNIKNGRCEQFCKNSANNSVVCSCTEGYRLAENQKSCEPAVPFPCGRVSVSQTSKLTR chain 2: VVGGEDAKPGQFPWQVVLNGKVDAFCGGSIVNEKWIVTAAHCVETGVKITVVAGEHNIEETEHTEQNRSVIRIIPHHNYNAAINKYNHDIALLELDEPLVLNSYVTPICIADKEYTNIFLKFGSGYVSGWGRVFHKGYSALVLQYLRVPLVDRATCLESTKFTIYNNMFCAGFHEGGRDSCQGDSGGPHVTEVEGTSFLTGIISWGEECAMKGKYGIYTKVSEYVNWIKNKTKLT ?
Reply | 8.8e+07
